Target: Ecdysone receptor (Spodoptera littoralis)
Assay: Agonist activity at ecdysone receptor in Spodoptera littoralis Sl2 cells after 24 hr by luciferase reporter gene assay relative to tebufenozide
Assay type: cell-based
endpoint name: Efficacy (%)

>>> df
                                    molecule                              study_system  value_observed
 0  CCCCc1ccc(C(=O)NN(C(=O)c2ccccc2OCC)C(C)(C)C)cc1  Ecdysone receptor (Spodoptera littoralis)              41
 1  Cc1cc(C)c(Cl)c(C(=O)N(NC(=O)c2ccccc2)C(C)(C)C)c1  Ecdysone receptor (Spodoptera littoralis)              87
 2  COc1cccc(C(=O)NN(C(=O)c2cc(C)cc(C)c2)C(C)(C)C)c1C [METHOXYFENOZIDE]  Ecdysone receptor (Spodoptera littoralis)             100
 3  Cc1cc(C)cc(C(=O)N(NC(=O)c2ccccc2)C(C)(C)C)c1  Ecdysone receptor (Spodoptera littoralis)              75
 4  CCc1ccc(C(=O)NC(CC)(CC)C(=O)c2cc(C)cc(C)c2)cc1  Ecdysone receptor (Spodoptera littoralis)              96
 5  Cc1cc(C)cc(C(=O)C2(NC(=O)C(F)(F)F)CCCCC2)c1  Ecdysone receptor (Spodoptera littoralis)              17
 6  CCCc1ccc(C(=O)NN(C(=O)c2ccccc2Cl)C(C)(C)C)cc1  Ecdysone receptor (Spodoptera littoralis)              75
 7  Cc1cc(C)cc(C(=O)N(NC(=O)c2ccc3c(c2C)CCCO3)C(C)(C)C)c1 [CHROMAFENOZIDE]  Ecdysone receptor (Spodoptera littoralis)             103
 8  CCOc1ccccc1C(=O)N(NC(=O)c1ccc(OC)cc1)C(C)(C)C  Ecdysone receptor (Spodoptera littoralis)              45
 9  CC(C)(C)N(NC(=O)c1ccccc1)C(=O)c1ccc(Cl)c(Cl)c1Cl  Ecdysone receptor (Spodoptera littoralis)              95
10  Cc1cc(C)cc(C(=O)N(NC(=O)c2cccc(C)c2C)C(C)(C)C)c1  Ecdysone receptor (Spodoptera littoralis)              63
11  CCc1ccc(C(=O)NC2(C(=O)c3cc(C)cc(C)c3)CCCCC2)cc1  Ecdysone receptor (Spodoptera littoralis)             101
12  CCc1ccc(C(=O)NC(C(=O)c2cc(C)cc(C)c2)C(C)(C)C)cc1 (stereo unspecified)  Ecdysone receptor (Spodoptera littoralis)              17
13  Cc1cc(C)c(Cl)c(C(=O)N(NC(=O)c2ccc(Cl)cc2)C(C)(C)C)c1  Ecdysone receptor (Spodoptera littoralis)             101
14  CC(C)(C)N(NC(=O)c1ccc(Br)cc1)C(=O)c1ccccc1Cl  Ecdysone receptor (Spodoptera littoralis)              77
15  CC(C)(C)N(NC(=O)c1ccccc1F)C(=O)c1ccccc1Cl  Ecdysone receptor (Spodoptera littoralis)             105
16  Cc1c(C(=O)NN(C(=O)c2ccccc2Cl)C(C)(C)C)ccc2c1CCCO2  Ecdysone receptor (Spodoptera littoralis)             108
17  CC(C)(C)N(NC(=O)c1cccc(Cl)c1)C(=O)c1ccccc1Cl  Ecdysone receptor (Spodoptera littoralis)              75
18  CC(C)(C)N(NC(=O)c1ccc(Cl)cc1)C(=O)c1ccccc1 [HALOFENOZIDE]  Ecdysone receptor (Spodoptera littoralis)             107
19  Cc1ccccc1C(=O)NN(C(=O)c1ccccc1Cl)C(C)(C)C  Ecdysone receptor (Spodoptera littoralis)             124
20  CCOc1ccccc1C(=O)N(NC(=O)c1ccc(CC)cc1)C(C)(C)C  Ecdysone receptor (Spodoptera littoralis)              89
